runDescription: protein stability index of a GFP-peptide fusion (yeast GPS) (PSI 1-4); higher = more stable; sorted into four equal gates, so the index is relative within each strain
experimentalParameters: pdr5∆
Assign class 1 to entries whose protein stability index meets or exceeds 3; assign class 0 to the rest.

- biosequence: "LILGLNTSIAQFDIQSP [YML103C/NUP188]"
  className: "class 0"
- biosequence: "MNAGGLFGAKPQNTTAT [YGR119C/NUP57]"
  className: "class 1"
- biosequence: "SVLISIPLDNYDDFIYL [PCI8]"
  className: "class 0"
- biosequence: "LHYLKKFKHIDDKYGRK [SRP72]"
  className: "class 0"
- biosequence: "KEKAPTIIFIDELDAIG [RPT5]"
  className: "class 0"
- biosequence: "DVLTLENIQEGTSLTIQ [CDC53]"
  className: "class 1"
- biosequence: "QWSMVAQRLQISDYQQL [SWI1]"
  className: "class 0"
- biosequence: "KSKLDQDSTSENVKIIN [RPN2]"
  className: "class 1"
- biosequence: "SKQVQVSQQPLSRGYTC [ECM29]"
  className: "class 0"
- biosequence: "KRPIESGTSSDPDTKKV [YIL149C/MLP2]"
  className: "class 1"
- biosequence: "EEGRAIPGEYITYALSG [RPS21B]"
  className: "class 1"
- biosequence: "LDLLRPVVRAPTVKYNR [RPL13A]"
  className: "class 0"
- biosequence: "RTKFVRSLVREIAGLSP [RPL36A]"
  className: "class 0"
- biosequence: "SGCDSTKPSLRKASCIW [ECM29]"
  className: "class 1"
- biosequence: "SRGESDDSLNRLAQNDG [RPS21A]"
  className: "class 0"
- biosequence: "MSSQIIDRPKHELSRAE [SMD2]"
  className: "class 1"
- biosequence: "SYQKLLKNYVLNELHPT [PRP8]"
  className: "class 0"
- biosequence: "DHDDSTDDADDHINWEH [NSL1]"
  className: "class 1"
- biosequence: "FLKKVMDTIQDKLINDV [ECM29]"
  className: "class 1"
- biosequence: "CDGDTVWDKFAVNLLNC [SSN2]"
  className: "class 1"
- biosequence: "GKHLSYQRSKRVNNPNV [RPL33A]"
  className: "class 0"
- biosequence: "EPSGIYSSWSAQTIGRN [PRE6]"
  className: "class 0"
- biosequence: "RSLRATAEERVGRRAAN [RPL15A]"
  className: "class 1"
- biosequence: "SVIPLKGRYAPETGDHV [RRP4]"
  className: "class 0"
- biosequence: "KKGESEKDASGKPSFVF [YOR098C/NUP1]"
  className: "class 0"
- biosequence: "VGCKNLERLTLVFCKHI [GRR1]"
  className: "class 0"
- biosequence: "SPASGIVDKYIGESARI [RPT4]"
  className: "class 0"
- biosequence: "QDSIFQRIIADLSADKP [SRB8]"
  className: "class 0"
- biosequence: "AEEDSLLSGEDLTLDDI [YJL039C/NUP192]"
  className: "class 1"
- biosequence: "LLNRIPRMYHIGLRQFQ [POP1]"
  className: "class 0"
- biosequence: "RASIEYYVGQVMRNNES [DIS3]"
  className: "class 1"
- biosequence: "ILKSLKNRSNRKRFHSQ [YOR098C/NUP1]"
  className: "class 1"
- biosequence: "GVRSNHLRSNILKDLIY [SMC1]"
  className: "class 0"
- biosequence: "KLKDSKKLFQKKENLTR [YML103C/NUP188]"
  className: "class 1"
- biosequence: "AKKSTTISKESTPDQRK [ESC2]"
  className: "class 0"
- biosequence: "EGLDLLKLCVQELEKRM [PRE1]"
  className: "class 0"
- biosequence: "NTLGKGQNCLDIDGIMD [SNU114]"
  className: "class 1"
- biosequence: "GINKIPPKPRKVLQLLR [RPL7A]"
  className: "class 1"
- biosequence: "VFLSNLVETCLNDLVES [BRR2]"
  className: "class 0"
- biosequence: "EAFNDGNENFEDFDVEH [RPO26]"
  className: "class 1"
- biosequence: "DQEKKYGMSITETFEKP [RPB2]"
  className: "class 1"
- biosequence: "NQILQTEIENYLLENNQ [YDL116W/NUP84]"
  className: "class 0"
- biosequence: "AGQNATVAVMSYSGYDI [RET1]"
  className: "class 0"
- biosequence: "FEGTDDNEEASVKLDLQ [BRN1]"
  className: "class 1"
- biosequence: "QVVGPFHTSFSAVVGPN [SMC4]"
  className: "class 0"
- biosequence: "NKLDEYHGLYTNYEMSY [LIN1]"
  className: "class 0"
- biosequence: "SNSTPNANQQFLPFNNS [SWI1]"
  className: "class 1"
- biosequence: "EAEVTAEVNGGDDEATE [BRR2]"
  className: "class 1"
- biosequence: "PKNQQYRAFGSIWQVKD [MED7]"
  className: "class 0"
- biosequence: "PLPTPFKVDDNVDFPSA [RPN2]"
  className: "class 0"
- biosequence: "MQLEEELMKLDGTEYVL [MED6]"
  className: "class 1"
